# TARGET UNDER TEST: pooled human IgG (human IgG1, 2, 3 and 4)
PARAMETER MEASURED: Enzyme Activity Endpoint Assay: Fab′2 (ng/µL)
Please respond with the number in ng/µL and leave the unit unwritten.

PROTEIN | PARAMETER MEASURED | VALUE UNIT | ENDPOINT RESULT
PRT-595 (protein) MANQEIRYSEETPSTITSVWTKGVTPPTDFIQNEDVLHAPYIANQGWYDITKTFNGKDDLLCGAATAGNMLHWWFDQNKEQIENYLKKHPEKQKINFNGEQMFDVKEAIDTKDSQTDSALFEYFKDKAFPYLSTKHLGVFPDHVIDMFINGYRLSLTNHGPTPVKRGTKDPRGGIFDAVFTRGDQSKLLTSRHDFKEKNLNEISDLIKQELTEGKALGLSHTYANVRINHVINLWGADFNAEGNLEAIYVTDSDSNASIGMKKYYVGVNSAGKVAISAKEIEGDNIGAQVLGLFTLSTGQDIWNQTNLEHHHHHH | Enzyme Activity Endpoint Assay: Fab′2 | ng/µL | 1040

Please turn your attention to the following entry.
## Task Param item = PRT-264 (protein) MVTSVWTKGVTPPTNFTYGEDVLHAPYVANQGWYDITKLFNGKDNLLCGAATAGNMLHWWFDQNKEQIENYLKKHPEKQKINFNGEQLFDVKEAIDTKDSQLDSKLFDYFKEKAFPYLSTKHLGVFPDHVIDMFINGYRLSLTNHGPTPVKRGSKDKRGGIFDAVFTRGVQSKLLTNRHDFKEKTLKEISDLIKQELTEGKALGISHTYANVRINHVINLWGADFDAEGNLEAIYVTDSDTNPSIGMKKYFVGVNSSGKVAISAKEIEEDNIGAQVLGLFTLSTGQDIWNQTN ; retrieve measured Enzyme Activity Endpoint Assay: Fab′2.
## Result 606
